assay: Solubility in phosphate buffered saline; type: physicochemical
Metric: solubility (µg/mL)
Reply with just the number (in µg/mL).

solubility measured on Cn1c(=O)cc(Oc2cc(C(=O)NC3CC3)ccc2Cl)c2cnn(-c3cc(F)ccc3F)c21 = 14.7

solubility measured on Cn1c(=O)cc(Nc2cc(C(=O)NC3CC3)ccc2Cl)c2cnn(-c3cc(F)ccc3F)c21 = 24.9

solubility measured on Cn1c(=O)cc(Nc2cc(C(=O)NC3CC3)ccc2Cl)c2cnn(-c3ccc(F)cc3)c21 = 26.6

solubility measured on Cc1ccc(C(=O)NC2CC2)cc1Oc1cc(=O)n(C)c2c1cnn2-c1ccc(F)cc1F = 5.3

solubility measured on Cn1c(=O)cc(Nc2cc(C(=O)NC3CC3)ccc2Cl)c2cnn(-c3ccc(F)cc3F)c21 = 60.6

* * *

biological target: Cytochrome P450 2C9 (Homo sapiens, UniProt P11712)
Sequence (P11712 whole entry): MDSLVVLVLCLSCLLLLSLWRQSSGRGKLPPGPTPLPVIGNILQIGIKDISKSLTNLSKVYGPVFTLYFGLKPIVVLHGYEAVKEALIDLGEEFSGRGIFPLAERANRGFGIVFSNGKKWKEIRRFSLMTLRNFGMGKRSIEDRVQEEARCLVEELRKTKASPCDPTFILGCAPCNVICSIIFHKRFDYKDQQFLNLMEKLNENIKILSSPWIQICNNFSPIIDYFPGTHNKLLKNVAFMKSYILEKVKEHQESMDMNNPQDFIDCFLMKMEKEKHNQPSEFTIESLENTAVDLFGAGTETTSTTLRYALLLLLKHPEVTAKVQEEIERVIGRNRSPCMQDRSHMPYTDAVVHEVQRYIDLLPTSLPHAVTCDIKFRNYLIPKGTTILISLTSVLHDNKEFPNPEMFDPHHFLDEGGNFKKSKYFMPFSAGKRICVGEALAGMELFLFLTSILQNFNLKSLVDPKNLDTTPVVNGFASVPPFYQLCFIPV
Metric: IC50 (µM)
Reply with just the number (in µM).

Let me check: Cn1c(=O)cc(Nc2cc(C(=O)NC3CC3)ccc2Cl)c2cnn(-c3ccc(F)cc3F)c21 , system Cytochrome P450 2C9 (Homo sapiens, UniProt P11712), measured IC50 is 8.4

* * *

test: Half life in Sprague-Dawley rat at 2 mg/kg, iv; format: ADME, organism-based; design: dose 2 mg/kg, route intravenous; settings: in vivo
The entries below come with measured half-life values attached.
Reply with just the number (in h).

The examples below pair each entry with its known result.
half-life measured on CCn1c(=O)cc(Oc2cc(C(=O)NC3CC3)ccc2C)c2cnn(-c3ccc(F)cc3)c21 = 3.2

half-life measured on Cn1c(=O)cc(Nc2cc(C(=O)NC3CC3)ccc2Cl)c2cnn(-c3ccc(F)cc3F)c21 = 3.8

half-life measured on Cn1c(=O)cc(Nc2cc(C(=O)NC3CC3)ccc2Cl)c2cnn(-c3c(F)cccc3F)c21 = 3.4

half-life measured on Cc1ccc(C(=O)NC2CC2)cc1Nc1cc(=O)n(C)c2c1cnn2-c1c(F)cccc1F = 2.8

half-life measured on Cn1c(=O)cc(Nc2cc(C(=O)NC3CC3)ccc2Cl)c2cnn(-c3ccc(F)cc3)c21 = 5.8

half-life measured on Cn1c(=O)cc(Nc2cc(C(=O)NC3CC3)ccc2Cl)c2cnn(-c3cc(F)ccc3F)c21 = 2.1

Shift focus to the following entry.
half-life measured on Cc1ccc(C(=O)NC2CC2)cc1Oc1cc(=O)n(C)c2c1cnn2-c1c(F)cccc1F = 2.3

* * *

assay: Clearance in Sprague-Dawley rat at 2 mg/kg, iv; type: ADME, organism-based; parameters: dose 2 mg/kg, route intravenous; details: in vivo
Criterion: clearance strictly less than 10 mL/min/kg. Met: MET. Not met: NOT MET.

**Query** In plain terms, does CCn1c(=O)cc(Nc2cc(C(=O)NC3CC3)ccc2Cl)c2cnn(-c3ccc(F)cc3F)c21 come in under 10 mL/min/kg for clearance?
**Result** MET

**Query** In plain terms, does Cn1c(=O)cc(Nc2cc(C(=O)NC3CC3)ccc2Cl)c2cnn(-c3ccc(F)cc3F)c21 come in under 10 mL/min/kg for clearance?
**Result** MET

**Query** In plain terms, does Cn1c(=O)cc(Nc2cc(C(=O)NC3CC3)ccc2Cl)c2cnn(-c3c(F)cccc3F)c21 come in under 10 mL/min/kg for clearance?
**Result** NOT MET

**Query** In plain terms, does Cc1ccc(C(=O)NC2CC2)cc1Oc1cc(=O)n(C)c2c1cnn2-c1c(F)cccc1F come in under 10 mL/min/kg for clearance?
**Result** NOT MET

Further cases:
**Query** In plain terms, does CCn1c(=O)cc(Nc2cc(C(=O)NC3CC3)ccc2Cl)c2cnn(-c3ccc(F)cc3)c21 come in under 10 mL/min/kg for clearance?
**Result** MET

The measurements presented in this section are drawn from ChEMBL document CHEMBL1153060.
